All values here come from ChEMBL document CHEMBL1201862.

Here, each record is paired with measured GI50 data.
# System: NCI-H226
# TEST DESCRIPTION: NCI tumour cell line growth inhibition, 48 h
Calls of active or inactive are those of the source. Rule as the data show it: active = GI50 up to about 1.1 µM and inactive = higher.

INSERT INTO measurements (molecule, value_measured) VALUES
  ('O=C1N2CCc3c([nH]c4ccccc34)C23CC2CCCC12S3 (configuration not stated)', '> 50 µM (inactive)'),
  ('NC(Cc1ccc2oc3cc(=O)c4ccccc4c-3nc2c1)C(=O)O (configuration not stated)', '27.3 µM (inactive)'),
  ('OCCN1CCN(c2nc(N3CCCC3)c3nc(Cl)c(NCc4ccccc4)nc3n2)CC1', '17.6 µM (inactive)'),
  ('O=[N+]([O-])O', '> 100 µM (inactive)'),
  ('C=C(C)C1Cc2c(cc(OC)c3c(=O)c4ccccc4n(C)c23)O1 (configuration not stated)', '> 100 µM (inactive)'),
  ('COC(=O)C1=CC(=O)[C@@H]2CCCC[C@H]12', '> 100 µM (inactive)');

Then there is this molecule:
Record request: GI50 value, item OC[C@H]1CCCC1O (some centres not stated) > 100 µM (inactive)
